Provide the recorded Specific Surface Area (nitrogen) for the entries that follow.
# Assay Remarks: BET nitrogen adsorption analysis, total specific surface area
# Assay type: physicochemical
# Test Settings: BET nitrogen adsorption model, 77.3K

## Task Fill in reported Specific Surface Area (nitrogen) for this entry: CCCCC1=NC2(CCCC2)C(=O)N1Cc1ccc(-c2ccccc2-c2nnn[nH]2)cc1 [Sample C, irbesartan]
## Result 3.16 m^2/g

## Task Fill in reported Specific Surface Area (nitrogen) for this entry: CCCCC1=NC2(CCCC2)C(=O)N1Cc1ccc(-c2ccccc2-c2nnn[nH]2)cc1 [Sample D, irbesartan]
## Result 4.29 m^2/g

## Task Fill in reported Specific Surface Area (nitrogen) for this entry: CCCCC1=NC2(CCCC2)C(=O)N1Cc1ccc(-c2ccccc2-c2nnn[nH]2)cc1 [Sample B, irbesartan]
## Result 6.16 m^2/g

## Task Fill in reported Specific Surface Area (nitrogen) for this entry: CCCCC1=NC2(CCCC2)C(=O)N1Cc1ccc(-c2ccccc2-c2nnn[nH]2)cc1 [Sample A, irbesartan]
## Result 5.17 m^2/g

* * *

# Assay Remarks: Gravimetric vapour sorption (GVS), water vapour adsorption
# Type: physicochemical
# Test Settings: 35 % RH
# Excerpt: GVS is a method traditionally used to detect quantitative weight changes of samples as a function of the relative humidity (RH). […] The corresponding weight change is continuously recorded via an ultra-microbalance. […] The equilibrium between sample and humidity can be determined from this information. • Sorption isotherms: • The equilibrium weight changes at each humidity are related to the dry mass of the sample (i.e. the equilibrium mass at 0% RH). […]
Result Type: Water Adsorption (wt %)
Numeric answer only, unit wt % assumed.

## Task Fill in reported Water Adsorption for this entry: CCCCC1=NC2(CCCC2)C(=O)N1Cc1ccc(-c2ccccc2-c2nnn[nH]2)cc1 [Sample B, irbesartan]
## Result 0.11

## Task Fill in reported Water Adsorption for this entry: CCCCC1=NC2(CCCC2)C(=O)N1Cc1ccc(-c2ccccc2-c2nnn[nH]2)cc1 [Sample A, irbesartan]
## Result 0.22

## Task Fill in reported Water Adsorption for this entry: CCCCC1=NC2(CCCC2)C(=O)N1Cc1ccc(-c2ccccc2-c2nnn[nH]2)cc1 [Sample D, irbesartan]
## Result 0.23

## Task Fill in reported Water Adsorption for this entry: CCCCC1=NC2(CCCC2)C(=O)N1Cc1ccc(-c2ccccc2-c2nnn[nH]2)cc1 [Sample C, irbesartan]
## Result 0.14

* * *

# Assay Remarks: Gravimetric vapour sorption (GVS), water vapour adsorption
# Assay type: physicochemical
# Test Settings: 20 % RH
Result Type: Water Adsorption (wt %)
Numeric answer only, unit wt % assumed.

## Task Fill in reported Water Adsorption for this entry: CCCCC1=NC2(CCCC2)C(=O)N1Cc1ccc(-c2ccccc2-c2nnn[nH]2)cc1 [Sample B, irbesartan]
## Result 0.07

## Task Fill in reported Water Adsorption for this entry: CCCCC1=NC2(CCCC2)C(=O)N1Cc1ccc(-c2ccccc2-c2nnn[nH]2)cc1 [Sample A, irbesartan]
## Result 0.14

## Task Fill in reported Water Adsorption for this entry: CCCCC1=NC2(CCCC2)C(=O)N1Cc1ccc(-c2ccccc2-c2nnn[nH]2)cc1 [Sample C, irbesartan]
## Result 0.09

## Task Fill in reported Water Adsorption for this entry: CCCCC1=NC2(CCCC2)C(=O)N1Cc1ccc(-c2ccccc2-c2nnn[nH]2)cc1 [Sample D, irbesartan]
## Result 0.16

Data origin, for the record: patent US20090312380A1
